target: Sulfonylurea receptor 1, Kir6.2 (Homo sapiens) (UniProt Q14654+Q09428); test: Activity at Kir6.2/SUR1 KATP channels expressed in HEK293 cells assessed as repolarization of tolbutamide-induced membrane depolarization relative to BPDZ73; type: cell-based
Measured property: Emax (%)

                        structure_notation  recorded_number
0     NC(=O)c1ccccc1NS(=O)(=O)c1ccc(Cl)cc1               47
1           O=c1[nH]cnc2ncc(-c3ccccc3)nc12               84
2       COc1ccc2nc(C(F)(F)F)c(C#N)c(N)c2c1              160
3     O=C(Nc1nccs1)c1c(O)c2cc(Cl)ccc2oc1=O              171
4        CC(C)NC1=NS(=O)(=O)c2cc(Cl)ccc2N1              100
5             COc1ccc2[nH]c(N3CCCCC3)nc2c1               52
6  OCCn1c(-c2ccc(F)cc2)cs/c1=N\c1ccc(F)cc1              105
7   N#Cc1c(-c2ccccc2)c(-c2ccccc2)n[nH]c1=O               55
8            CC(=O)Nc1nc2ccccc2n1CCN1CCCC1               55

Origin of measurements: ChEMBL document CHEMBL1147157
